assay: P. aeruginosa biofilm formation inhibitors, primary screen, strain PAO1, LB-PBS medium, absorbance 600 nm (AID 1176); note: test concentration not given here; settings: P. aeruginosa PAO1 growth/biofilm, A600, 12 h; higher = more signal
Task for the reader: assign each of the following molecules its reported z-score.
Respond with the number and no other words.

**Q:** I'd like to know its z-score. The molecule in question is CCCCC(O)C1C=CC2C(=O)NC(=O)C2N1Nc1ccccn1 (stereo not given)
**A:** 0.695

**Q:** Please give the result for [N-]=[N+]=NCc1ccccc1C[C@]1(C(=O)NCc2ccccc2)N=C(c2ccc(OCCCO)cc2)O[C@H]1c1ccccc1CN=[N+]=[N-] too.
**A:** 1.32

**Q:** Please give the result for NC(=O)[C@@]1(CCS(=O)(=O)c2ccccc2)COC(c2ccc(OCCCO)cc2)=N1 too.
**A:** -0.304

**Q:** Please give the result for C=C(CCCC)/C(=C/C[C@H](OC(C)=O)c1cccc(OCCO)c1)c1cc(C(=O)OC)ccc1OC too.
**A:** 0.473

**Q:** Please give the result for Cc1ccc(S[C@]2(C(=O)NCCN3CCOCC3)CC(=O)N(C3CCCCC3)[C@@H]2c2ccc(CO)cc2I)cc1 too.
**A:** -0.447

**Q:** Please give the result for COc1cccc(OC)c1C(=O)O[C@H]1[C@@H]2OC(=O)[C@H](Cc3cccc(Br)c3)C/C=C/C[C@@H](Cc3cccc(Br)c3)C(=O)O[C@H]2[C@@H](OC)O[C@@H]1CO too.
**A:** 0.277

**Q:** Please give the result for C=CCC(OC(C)=O)[C@@H]1[C@@H](N(Cc2ccc(-c3cccc(C(F)(F)F)c3)o2)C(=O)Cc2ccc(OC)cc2)c2cc(OCCCO)ccc2N1C(=O)c1ccc2ccccc2n1 (stereo not given in full) too.
**A:** -0.817

**Q:** Please give the result for CCCCC(O)C1C=CC2C(=O)NC(=O)C2N1Nc1ccc(Cl)cc1Cl (stereo not given) too.
**A:** 0.546

**Q:** Please give the result for C=CC[C@]1(C(=O)N(C)C)COC(c2ccc(OCCCO)cc2)=N1 too.
**A:** 1.21

**Q:** Please give the result for CC(C)C[C@H]1NC(=O)[C@@]23C(=O)N[C@@H](Cc4ccccc4)C2[C@H](C)[C@@]2(C)O[C@H]2C3/C=C/C/C=C\CNC(=O)[C@@H]2CCCN2C1=O (stereo not given in full) too.
**A:** 0.352

**Q:** Please give the result for C=CCC(OC(C)=O)[C@@H]1[C@@H](N(Cc2ccc(-c3cccc(C(F)(F)F)c3)o2)C(=O)Cc2ccc(F)cc2)c2cc(OCCCO)ccc2N1C(=O)c1ccc2ccccc2c1 (stereo not given in full) too.
**A:** -0.194

**Q:** Please give the result for [N-]=[N+]=NCc1ccccc1[C@H]1OC(c2ccc(OCCCO)cc2)=N[C@@]1(Cc1ccccc1)C(=O)N1CCOCC1 too.
**A:** 0.841

**Q:** Please give the result for CCCCCCCCCCC(O)C1C=CC2C(=O)N(C)C(=O)C2N1N1CCCCC1 (stereo not given) too.
**A:** 0.944

**Q:** Please give the result for O=C1NC(=O)C2C1C=CC(C(O)c1cccc(O)c1)N2Nc1ccc(Cl)cc1Cl (stereo not given) too.
**A:** 0.695

**Q:** Please give the result for COc1ccc([Si](C)(C)[C@H]2[C@H](CCO)O[C@@]3(C(=O)N(Cc4ccc(N5CCOC5=O)cc4)c4ccccc43)[C@@H]2C)cc1 too.
**A:** 2.02
